These entries and their values trace back to PubChem BioAssay (NCI).

Known TGI of a selection of compounds
Tested on: A549 NSCLC
method: NCI tumour cell line growth inhibition, 48 h

Answered examples (8):
# compound, TGI
records = [
    ("c1cc(C2CCCCC2)ccc1OCCCCCCN1CCNCC1", "3.65 µM"),
    ("O=c1[nH]c2cc3cccnc3c(Cl)c2nc1C(F)(F)F", "> 100 µM"),
    ("CC1CCC2(NC1)OC1CC3[C@@H]4CC=C5C=CCC[C@]5(C)C4CC[C@]3(C)C1C2C (stereo partly specified)", "58.5 µM"),
    ("COc1ccc(-c2nc(-c3cc4ccccc4oc3=O)cs2)cc1", "> 100 µM"),
    ("COCN1CCN=c2c1c1c3c(c4ccccc4n23)CCC1", "> 100 µM"),
    ("O=C(Cn1c(=O)c(-c2ccccc2)nc2ccccc21)c1cccnc1", "> 100 µM"),
    ("COc1ccc(S(=O)(=O)N/N=C/CN2C(=O)c3ccccc3C2=O)cc1OC", "> 100 µM"),
    ("CC1=C(C(=O)Nc2ccc3[nH]ncc3c2)C(c2ccc(F)cc2)NC(=O)N1 (stereo unspecified)", "> 25 µM"),
]

Query string: Look at this compound and give its reported TGI. OCc1cccc(-c2ccc3ncc(-c4nc(NC5CC5)ncc4F)n3c2)c1
Result string: > 100 µM

Query string: Look at this compound and give its reported TGI. C=C1C(=O)O[C@H]2[C@H]1CC/C(CNS(=O)(=O)c1ccc3ccccc3c1)=C\CC[C@@]1(C)O[C@@H]21
Result string: 25 µM

Query string: Look at this compound and give its reported TGI. C[N+](C)([O-])CCCNc1c2ccccc2nc2cccc([N+](=O)[O-])c12
Result string: 0.795 µM

----------
System: SF-268 CNS
method: NCI tumour cell line growth inhibition, 48 h
readout.type: TGI

# compound, readout.type, measured.value
measured = [
    ("Cc1ccc2c[c]1[Hg][CH2]COS2(=O)=O", "TGI", "32.4 µM"),
]

Query string: Requested read-out TGI, target or system SF-268 CNS, entry CCCCCCCCCCCCCCCC(=O)OCC1OC(n2cnc3c(=S)nc(N)[nH]c32)C(OC(=O)CCCCCCCCCCCCCCC)C1OC(=O)CCCCCCCCCCCCCCC (configuration not stated)
Result string: > 50 µM

Query string: Requested read-out TGI, target or system SF-268 CNS, entry COc1ccccc1/C=C1\CCC(CNc2ccc(Cl)cc2)C1=O (configuration not stated)
Result string: 24.2 µM

Query string: Requested read-out TGI, target or system SF-268 CNS, entry CCOC(=O)/C(C#N)=C/c1ccc(CO)o1
Result string: > 100 µM

Query string: Requested read-out TGI, target or system SF-268 CNS, entry NC1CCCCC1N.O=C([O-])P(=O)([O-])[O-].[Na+].[Pt+4] (configuration not stated)
Result string: > 100 µM

Query string: Requested read-out TGI, target or system SF-268 CNS, entry O=C(/C=C/c1ccc(-c2ccccc2)cc1)NCc1ccc(C(=O)NCCc2c[nH]c3ccccc23)cc1
Result string: > 100 µM

Query string: Requested read-out TGI, target or system SF-268 CNS, entry COc1ccc(Oc2nc3ccc(C(F)(F)F)cc3nc2-c2ccccc2)cc1
Result string: > 100 µM
